Where do the numbers come from? From patent US20250163104A1.

- subject-of-test: human PD-1 / PD-L1-Ig binding on Jurkat cell line over-expressing human PD-1 (Jurkat-PD-1) (Homo sapiens)
- Construct: expressed in transfected cells; host or cells: Jurkat
- Sequence (Q15116 25-288): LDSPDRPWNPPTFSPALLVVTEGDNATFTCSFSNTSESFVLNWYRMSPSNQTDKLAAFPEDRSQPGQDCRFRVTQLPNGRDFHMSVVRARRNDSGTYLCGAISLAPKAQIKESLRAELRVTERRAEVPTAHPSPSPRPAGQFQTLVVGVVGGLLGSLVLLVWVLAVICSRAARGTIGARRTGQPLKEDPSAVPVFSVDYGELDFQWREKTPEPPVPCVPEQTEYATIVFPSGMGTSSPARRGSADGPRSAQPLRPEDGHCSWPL
- measurement-description: Jurkat-PD-1 Cell Binding High-Content Screening Assay (CBA)
- Assay type: cell-based
- recorded-conditions: Jurkat-PD-1 cells, PE-labeled PD-L1-Ig 20 nM final; read-out: Jurkat HPD1_PDL1 IC50
Where a SMILES comes first, the peptide text is derived from it. Bridges are numbered along the chain shown (N, C = ends). [ ]: non-standard residue; d: D form. Bip = N[C@@H](Cc1ccc(-c2ccccc2)cc1)C(=O)O; Orn = NCCC[C@H](N)C(=O)O; Dab = NCC[C@H](N)C(=O)O; Dap = NC[C@H](N)C(=O)O
assay-readout: IC50 (nM)
Response body: numeric value in nM, unit text excluded.

# input molecule: CC(C)C[C@@H]1NC(=O)[C@H](CCN)NC(=O)[C@@H](CC(C)C)NC(=O)[C@H](CCCN)NC(=O)[C@H](C(C)C)NC(=O)[C@H](Cc2ccc(-c3ccccc3)cc2)NC(=O)[C@H](C(C)C)NC(=O)[C@H](Cc2c[nH]c3ccccc23)NC(=O)[C@H](CC(N)=O)NC(=O)[C@H](Cc2ccc(O)cc2)NC(=O)[C@H](CN)NC(=O)CSC[C@@H](C(=O)N[C@@H](C)C(N)=O)NC(=O)[C@H]([C@@H](C)O)NC(=O)[C@H](C(C)C)NC1=O [Compound 1087] ({CH2CO}-[Dap]YNWV[Bip]V[Orn][dL][Dab]LVTCA-NH2; thioether N-14) ; wanted: its IC50
36.6

Bench note: what IC50 did CC(C)C[C@@H]1NC(=O)[C@H](Cc2c[nH]c3ccccc23)NC(=O)[C@H](CC(=O)O)NC(=O)[C@H](Cc2ccc(O)cc2)NC(=O)[C@H](Cc2ccccc2)NC(=O)CSC[C@@H](C(=O)NCC(N)=O)NC(=O)[C@H](CO)NC(=O)[C@H](C(C)C)NC(=O)[C@H](CC(C)C)NC(=O)[C@H](CC(N)=O)NC(=O)[C@@H](CC(C)C)NC(=O)[C@H](CN)NC(=O)[C@H](C(C)C)NC(=O)[C@H](Cc2ccc(-c3ccccc3)cc2)NC1=O [Compound 1274] ({CH2CO}-FYDWL[Bip]V[Dap][dL]NLVSCG-NH2; thioether N-14) show?
38.4

---

- subject-of-test: human PD-1 / PD-L1-Ig binding on Jurkat cell line over-expressing human PD-1 (Jurkat-PD-1) (Homo sapiens)
- Construct: expressed in transfected cells; host or cells: Jurkat
- measurement-description: Jurkat-PD-1 Cell Binding High-Content Screening Assay (CBA)
- Format: cell-based
- recorded-conditions: Jurkat-PD-1 cells, PE-labeled PD-L1-Ig 20 nM final; read-out: Jurkat HPD1_PDL1 IC50
Where a SMILES comes first, the peptide text is derived from it. Bridges are numbered along the chain shown (N, C = ends). [ ]: non-standard residue; d: D form. Bip = N[C@@H](Cc1ccc(-c2ccccc2)cc1)C(=O)O; Orn = NCCC[C@H](N)C(=O)O; Dab = NCC[C@H](N)C(=O)O
assay-readout: pIC50
Please report pIC50 as the negative decimal logarithm of the molar concentration, giving only the number.

pIC50 lookup needed for CC(C)C[C@@H]1NC(=O)[C@H](CCN)NC(=O)[C@@H](CC(C)C)NC(=O)[C@H](CCCN)NC(=O)[C@H](C(C)C)NC(=O)[C@H](Cc2ccc(-c3ccccc3)cc2)NC(=O)[C@H](C(C)C)NC(=O)[C@H](Cc2c[nH]c3ccccc23)NC(=O)[C@H](CC(N)=O)NC(=O)[C@H](Cc2ccc(O)cc2)NC(=O)[C@H](CC(N)=O)NC(=O)CSC[C@@H](C(=O)NCC(N)=O)NC(=O)[C@H]([C@@H](C)O)NC(=O)[C@H](C(C)C)NC1=O [Compound 1084] ({CH2CO}-NYNWV[Bip]V[Orn][dL][Dab]LVTCG-NH2; thioether N-14) , thanks.
7.54

# input compound: CC(C)C[C@@H]1NC(=O)[C@H](CCCCN)NC(=O)[C@@H](CC(C)C)NC(=O)[C@H](CCN)NC(=O)[C@H](Cc2cnc[nH]2)NC(=O)[C@H](Cc2ccc(-c3ccccc3)cc2)NC(=O)[C@H](C(C)C)NC(=O)[C@H](Cc2c[nH]c3ccccc23)NC(=O)[C@H](CC(=O)O)NC(=O)[C@H](Cc2ccc(O)cc2)NC(=O)[C@H](CC(N)=O)NC(=O)CSC[C@@H](C(=O)N[C@@H](C)C(N)=O)NC(=O)[C@H](CO)NC(=O)[C@H](C(C)C)NC1=O [Compound 1138] ({CH2CO}-NYDWV[Bip]H[Dab][dL]KLVSCA-NH2; thioether N-14) ; wanted: its pIC50
7.71

Which value of pIC50 has been reported for CC(C)C[C@@H]1NC(=O)[C@H](Cc2c[nH]c3ccccc23)NC(=O)[C@H](CC(=O)O)NC(=O)[C@H](Cc2ccc(O)cc2)NC(=O)[C@H](Cc2ccccc2)NC(=O)CSC[C@@H](C(=O)NCC(N)=O)NC(=O)[C@H]([C@@H](C)O)NC(=O)[C@H](C(C)C)NC(=O)[C@H](CC(C)C)NC(=O)[C@H](CCN)NC(=O)[C@@H](C)NC(=O)[C@H](CCN)NC(=O)[C@H](C(C)C)NC(=O)[C@H](Cc2ccc(-c3ccccc3)cc2)NC1=O [Compound 1103] ({CH2CO}-FYDWL[Bip]V[Dab][dA][Dab]LVTCG-NH2; thioether N-14) in the records?
6.95

So what's the measured pIC50 for this one? CC(C)C[C@H]1NC(=O)[C@H](CCCN)NC(=O)[C@H](CCCN)NC(=O)[C@H](Cc2ccc(-c3ccccc3)cc2)NC(=O)[C@H](C(C)C)NC(=O)[C@H](Cc2c[nH]c3ccccc23)NC(=O)[C@H](CC(=O)O)NC(=O)[C@H](Cc2ccc(OCC(=O)O)cc2)NC(=O)[C@H](CN)NC(=O)CSC[C@@H](C(=O)N[C@@H](C)C(N)=O)NC(=O)[C@H]([C@@H](C)O)NC(=O)[C@H](C(C)C)NC(=O)[C@H](CC2CCCCC2)NC(=O)[C@H](CCN)NC1=O
8.01
